- measuredOn: UniProt P21802
- Sequence (P21802 399-821 limits assumed): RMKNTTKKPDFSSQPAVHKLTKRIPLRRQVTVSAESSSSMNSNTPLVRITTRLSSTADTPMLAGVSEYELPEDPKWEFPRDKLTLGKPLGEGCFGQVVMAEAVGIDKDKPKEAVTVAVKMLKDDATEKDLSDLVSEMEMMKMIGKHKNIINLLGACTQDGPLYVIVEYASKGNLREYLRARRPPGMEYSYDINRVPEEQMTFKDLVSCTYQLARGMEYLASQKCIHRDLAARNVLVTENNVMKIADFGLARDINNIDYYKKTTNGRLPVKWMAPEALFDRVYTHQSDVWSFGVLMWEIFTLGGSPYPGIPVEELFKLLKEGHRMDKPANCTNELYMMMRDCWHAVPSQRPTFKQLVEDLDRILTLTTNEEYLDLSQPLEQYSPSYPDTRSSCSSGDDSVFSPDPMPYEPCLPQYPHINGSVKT
- assayName: FGFR wild type enzyme assay (HTRF KinEASE-TK), FGFR2
- recordedConditions: Enz FGFR2 (nM), FGFR2 wild type enzyme assay
readoutLabel: IC50 (nM)

1. Cc1ccc(Sc2cc(-c3cnn(C4CCN(C)CC4)c3C)cn3ncc(C#N)c23)c(C#N)c1 [Example 378]	4
2. COCc1c(-c2cc(Sc3ccccc3C#N)c3c(C#N)cnn3c2)cnn1C1CCN(C)CC1 [Example 424]	46
3. CN1CCN(c2ccc(-c3cc(Sc4ccccc4C#N)c4c(C#N)cnn4c3)cc2)CC1 [Example 469]	0.2
4. Cc1c(-c2cc(Sc3ccccc3C#N)c3c(C#N)cnn3c2)cnn1C1CCN(C(=O)C(C)(C)C)CC1 [Example 437]	1

P = CC(=O)N1CCC(n2cc(-c3cc(Sc4ccccc4C#N)c4c(C#N)cnn4c3)cn2)CC1 [Example 444]
Q = CC(C)(O)Cn1cc(-c2cc(Sc3ccccc3C#N)c3c(C#N)cnn3c2)cn1 [Example 494]
Q: Higher IC50 between P and Q ? Answer by quoting the chosen item's label.
Ans: Q
(Q: 1 nM, P: 0.3 nM)

I = C#Cc1cnn2cc(-c3cnn(C4CCN(C(=O)CO)CC4)c3C)cc(Sc3ccc(F)cn3)c12 [Example 340]
II = CN1CCN(c2ccc(-c3cc(Sc4ncccc4F)c4c(C#N)cnn4c3)cc2)CC1 [Example 467]
Q: Lab note: check whether I or II shows the higher recorded IC50. Field: selected label. Fill in the label of the entry you choose.
Ans: I
